Recorded measurements of CC50, one per entry
# test: in vitro
# cond: human, CC50 HelaR19 Average
The response must be a number in µM with no trailing unit.

See these solved cases before continuing.
| molecule | CC50 (µM) |
| --- | --- |
| COc1ccc(N(Cc2ccc(C(F)(F)F)cc2)C(=O)c2ccco2)cc1 [Compound 19e] | 54 |
| COc1ccc(N(Cc2ccc(F)cc2)C(=O)c2cccs2)cc1 | 53 |

molecule O=C(c1ccco1)N(Cc1ccc(S(F)(F)(F)(F)F)cc1)c1ccccc1 [Compound 19f] , CC50 observed: 32

molecule CC(C)c1ccc(CN(C(=O)c2ccco2)c2ccccc2)cc1 [Compound 19h] , CC50 observed: 42.7

molecule O=C(c1ccco1)N(Cc1ccccc1)c1ccc(C(F)(F)F)cc1 [Compound 19i] , CC50 observed: 68.5

molecule COc1ccc(N(Cc2ccc(F)cc2)C(=O)c2ccco2)cc1 , CC50 observed: 43.9

molecule O=C(c1ccco1)N(Cc1ccc(C(F)(F)F)cc1)c1ccccc1 [Compound 19d] , CC50 observed: 93.7
